system: Plasmodium falciparum; assay: Antimalarial activity against ring stage of Plasmodium falciparum assessed as parasites growth inhibition using giemsa staining after 24 to 56 hrs by microscopic analysis in presence of 10% human serum; format: functional, organism-based

Compound: O=C(/C=C/c1ccccc1)N[C@@H](CCCCCC(=O)NO)C(=O)Nc1cccc2cccnc12
IC50: 492 nM
--
Compound: C[C@H]1[C@H](OC(=O)CCC(=O)O)O[C@@H]2O[C@@]3(C)CC[C@H]4[C@H](C)CC[C@@H]1[C@@]24OO3 [ARTESUNATE]
IC50: 0.88 nM
--
Compound: O=C(CCCCC[C@H](NC(=O)c1cc2ccccc2[nH]1)C(=O)Nc1cccc2cccnc12)NO
IC50: 238 nM

----------
test system: Plasmodium vivax; assay: Antimalarial activity against ring stage of Plasmodium vivax assessed as parasites growth inhibition using giemsa staining after 24 to 56 hrs by microscopic analysis in presence of 20% human serum; assay type: functional, organism-based
Result Type: IC50

Compound: Clc1ccc2c(N3CCN(CCCN4CCN(c5ccnc6cc(Cl)ccc56)CC4)CC3)ccnc2c1
Value: 0.0155 µM
//
Compound: O=C(/C=C/c1ccccc1)N[C@@H](CCCCCC(=O)NO)C(=O)Nc1cccc2cccnc12
Value: 0.545 µM
//
Compound: OC(c1cc(C(F)(F)F)nc2c(C(F)(F)F)cccc12)C1CCCCN1 (stereo not given)
Value: 0.0092 µM
//
Compound: O=C(CCCCC[C@H](NC(=O)c1cc2ccccc2[nH]1)C(=O)Nc1cccc2cccnc12)NO
Value: 0.327 µM
//
Compound: C[C@H]1[C@H](OC(=O)CCC(=O)O)O[C@@H]2O[C@@]3(C)CC[C@H]4[C@H](C)CC[C@@H]1[C@@]24OO3 [ARTESUNATE]
Value: 0.00075 µM
